I'd be grateful if you could share measured pKd for these entries.
Molecular target: T1, full-length human 14-3-3ζ fused to the C terminus of MBP (human, UniProt P63104 1-245)
T1 chain: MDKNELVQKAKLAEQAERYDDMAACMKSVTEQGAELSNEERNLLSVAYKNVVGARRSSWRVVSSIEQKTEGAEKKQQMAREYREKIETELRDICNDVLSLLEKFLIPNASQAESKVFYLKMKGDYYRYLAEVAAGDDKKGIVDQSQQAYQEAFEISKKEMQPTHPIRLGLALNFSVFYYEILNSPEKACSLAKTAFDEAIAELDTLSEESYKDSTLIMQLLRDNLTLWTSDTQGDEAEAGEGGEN
Experiment: FP
Non-standard residues stand in square brackets, D forms with d. No end group written: not given here. *: point of attachment. FITC = O=C1OC2(c3ccc(O)cc3Oc3cc(O)ccc32)c2ccc(NC(=S)*)cc21; Biotin = O=C1N[C@H]2[C@H](CS[C@H]2CCCCC(=O)*)N1; pT = C[C@@H](OP(=O)(O)O)[C@H](N)C(=O)O; ttds = NCCCOCCOCCOCCCNC(=O)CCC(=O)*; pS = N[C@@H](COP(=O)(O)O)C(=O)O
Give bare numbers, as −log10 of the molar value.

// solved cases for pKd follow
INSERT INTO results (binder, readout_value) VALUES
  ('{Biotin-ttds}-RRVRKLPS[pT]TL [RSK1 phospho-PBM peptide RSK1_-2P]', 5.81),
  ('{FITC}-WLRRA[pS]APLPGLK [fluorescently labeled HSPB6 phosphopeptide (fpB6)]', 5.32),
  ('{Biotin-ttds}-RRVRKLPST[pT]L [RSK1 phospho-PBM peptide RSK1_-1P]', 6.02);

Required: pKd, one value per binder below.
1. {Biotin-ttds}-RLQRRRE[pT]QV [HPV18 E6 phospho-PBM peptide p18E6]
2. {Biotin-ttds}-SSRTRRE[pT]QL [HPV16 E6 phospho-PBM peptide p16E6]

Reply text:
[4.65, 4.13]

Data provenance: paper PMC7961048
